# Test system: NCI-H460
# protocol-summary: NCI tumour cell line growth inhibition, 48 h
Activity calls are given as the source filed them. Cut-off read from the data, not from the text of the source: active = GI50 up to about 1.1 µM and inactive = higher. Where a SMILES comes first, the peptide text is derived from it. [ ]: non-standard residue; d: D form. The star is where a group is joined. ξ: configuration not given here. ξD = NC(CC(=O)O)C(=O)O; Boc = CC(C)(C)OC(=O)*; Aib = CC(C)(N)C(=O)O; OtBu = CC(C)(C)O*
Labels: active, inactive

INSERT INTO assay_data (compound, class_label) VALUES
  ('NC(Cc1ccc(OCc2ccccc2)cn1)C(=O)OCc1ccccc1 (centres undefined)', 'inactive'),
  ('COC(=O)C(C)(C)NC(=O)C(C)(C)NC(=O)C(CC(=O)OC(C)(C)C)NC(=O)OC(C)(C)C (centres undefined) (Boc-[ξD](OtBu)-[Aib]-[Aib]-OMe)', 'inactive'),
  ('O=C1NC(=O)C2C3C=CC(C12)C1C2C(=O)NC(=O)C2C31 (centres undefined)', 'inactive'),
  ('CCN(CC)c1ccc(NC(=S)NN(C)C)cc1', 'inactive'),
  ('CCOC(=O)C(NC(=O)C(CCCCNP(=O)(OCC)OCC)NC(=O)C(C)NC(C)=O)C(C)C (centres undefined)', 'inactive'),
  ('CCN1C/C(=C\c2cc(OC)c(OC)c(OC)c2)C2=NN(c3ccccc3)C(c3cc(OC)c(OC)c(OC)c3)C2C1 (centres undefined)', 'active'),
  ('CC(C)(C)OC(=O)NC(Cc1ccccc1)C(=O)N1CCCC1C(N)=O (stereo not drawn) (Boc-Phe-Pro-NH2; configuration not given here)', 'inactive'),
  ('CCN(CC)CCNC(=O)c1ccccc1NC(=O)C(=O)Nc1ccccc1C(=O)NCCN(CC)CC', 'inactive'),
  ('CN1CCC(C(O)(c2ccccc2)c2ccc(Br)cc2)CC1 (centres undefined)', 'inactive');

// provenance: ChEMBL document CHEMBL1201862
